Source: PubChem BioAssay AID720553

tested on: Potassium voltage-gated channel subfamily H member 2, brain isoform KCNH2 3.1 (human); assay: qHTS for Inhibitors of KCHN2 3.1: Mutant qHTS; settings: U2OS KCNH2 3.1, thallium flux FluxOr; hits give low values; further: on the % scale 0 is the no-effect control and ±100 the full control effect
In all, about 340,000 compounds went through this assay and about 3,300 (0.97%) were called active. The sample holds actives, similar compounds and a random draw of the others, so the mix is not that of the screen.
Value Type: activity change (%)

Compound	Target Entity	Value Type	Reported
COc1ccc(NC(=O)CN2C(=O)CSC2=O)cc1	Potassium voltage-gated channel subfamily H member 2, brain isoform KCNH2 3.1 (human)	activity change	5.91
CC(C)c1ccc(-c2noc(C3CCCN(S(C)(=O)=O)C3)n2)cc1 (stereo unspecified)	Potassium voltage-gated channel subfamily H member 2, brain isoform KCNH2 3.1 (human)	activity change	-21.4
C#CC(CCN1CCCCC1)(OC)c1ccccc1 (stereo unspecified)	Potassium voltage-gated channel subfamily H member 2, brain isoform KCNH2 3.1 (human)	activity change	58.1
COc1cc(-c2nnc(NC(=O)CS(=O)(=O)c3ccc(Cl)cc3)o2)cc(OC)c1OC	Potassium voltage-gated channel subfamily H member 2, brain isoform KCNH2 3.1 (human)	activity change	3.81
CCCCCC(O)(CCN1CCCCC1)c1ccccc1 (stereo unspecified)	Potassium voltage-gated channel subfamily H member 2, brain isoform KCNH2 3.1 (human)	activity change	-102
COc1ccc(C(=O)N2CCC(C(=O)Nc3ccc(C)cc3)CC2)cc1	Potassium voltage-gated channel subfamily H member 2, brain isoform KCNH2 3.1 (human)	activity change	-27
COc1cccc(CNCCc2c[nH]c3ccccc23)c1OCc1ccccc1F	Potassium voltage-gated channel subfamily H member 2, brain isoform KCNH2 3.1 (human)	activity change	-1.51
CNC(=O)/C(=C\C=C\c1ccccc1)NC(=O)c1ccc([N+](=O)[O-])cc1	Potassium voltage-gated channel subfamily H member 2, brain isoform KCNH2 3.1 (human)	activity change	-78.9
CCC1CCC2(CC1)NC(=O)N(CC(=O)Nc1ccc(OC)cc1)C2=O (stereo unspecified)	Potassium voltage-gated channel subfamily H member 2, brain isoform KCNH2 3.1 (human)	activity change	10.2
COc1ccc(CCNC(=O)COC(=O)Cc2ccccc2F)cc1	Potassium voltage-gated channel subfamily H member 2, brain isoform KCNH2 3.1 (human)	activity change	8.82
O=C(CSc1nnc(-c2cnccn2)n1Cc1ccco1)c1ccc(Cl)c(Cl)c1	Potassium voltage-gated channel subfamily H member 2, brain isoform KCNH2 3.1 (human)	activity change	-196
O=C(OCc1cn([C@H]2C[C@H](c3ccccc3)N(C(=O)c3cccs3)C[C@@H]2O)nn1)c1ccccc1	Potassium voltage-gated channel subfamily H member 2, brain isoform KCNH2 3.1 (human)	activity change	-26.8
Cc1ccc(C(=O)N/C(=C/C=C/c2ccccc2)C(=O)NCc2ccco2)cc1	Potassium voltage-gated channel subfamily H member 2, brain isoform KCNH2 3.1 (human)	activity change	-38.2
COCC(=O)N(C)C[C@H]1Oc2cc(Br)ccc2S(=O)(=O)N([C@H](C)CO)C[C@H]1C	Potassium voltage-gated channel subfamily H member 2, brain isoform KCNH2 3.1 (human)	activity change	-6.83
COc1ccc(CN2C(=O)C(CC(=O)NCCCCc3ccccc3)CC(C(=O)N3CCOCC3)=C2C)cc1 (stereo unspecified)	Potassium voltage-gated channel subfamily H member 2, brain isoform KCNH2 3.1 (human)	activity change	-14.3
CCOc1ccc(NC(=O)N2CCN(CC)CC2)cc1	Potassium voltage-gated channel subfamily H member 2, brain isoform KCNH2 3.1 (human)	activity change	10.1
Cc1csc(SCC(=O)Nc2ccc(C)c(S(=O)(=O)N(C)C)c2)n1	Potassium voltage-gated channel subfamily H member 2, brain isoform KCNH2 3.1 (human)	activity change	-4.71
Cc1ccc(NC(=O)CSc2nnc(-c3cnccn3)n2Cc2ccco2)cc1C	Potassium voltage-gated channel subfamily H member 2, brain isoform KCNH2 3.1 (human)	activity change	3.68
C[C@@H]1CN([C@@H](C)CO)S(=O)(=O)c2ccc(-c3ccc(C(=O)N(C)C)cc3)cc2O[C@@H]1CN(C)Cc1ccccc1C(=O)O	Potassium voltage-gated channel subfamily H member 2, brain isoform KCNH2 3.1 (human)	activity change	-0.261
CC(=O)Nc1ccc(SCC(=O)NC(=O)c2ccc(Cl)cc2)cc1	Potassium voltage-gated channel subfamily H member 2, brain isoform KCNH2 3.1 (human)	activity change	-9.69
CCc1ccc(NC(=O)CN2CCC(C(=O)c3ccc(OC)cc3)CC2)cc1	Potassium voltage-gated channel subfamily H member 2, brain isoform KCNH2 3.1 (human)	activity change	-75.5
